This collection of values is drawn from patent US20220380341A1.

biological target: HIV-1 Nef SF2 (Human immunodeficiency virus type 1 group M subtype B, UniProt P03407); construct: made in house; experiment: biochemical; format: binding; settings: two-step induced-fit model, Reichert SPR, read-out: Reichert SPR Nef SF2 (M) two-step fitting
Sequence (P03407 whole entry): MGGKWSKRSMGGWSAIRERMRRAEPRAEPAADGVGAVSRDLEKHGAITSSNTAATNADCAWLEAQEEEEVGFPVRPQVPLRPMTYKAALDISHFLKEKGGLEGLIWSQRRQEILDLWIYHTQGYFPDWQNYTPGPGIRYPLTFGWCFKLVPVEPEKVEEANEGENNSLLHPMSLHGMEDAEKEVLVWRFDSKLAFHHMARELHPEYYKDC
Recorded measurements of Kd, one per entry
attribute_measured: Kd (M)

{"smiles_repr": "CC(C)(C)OC(=O)N1CCC(CCc2c(-c3cccc(S(C)(=O)=O)c3)nn(-c3nc4ccccc4[nH]3)c2O)CC1", "attribute_measured": "Kd", "assay_value": "4.31e-06"}
{"smiles_repr": "CC(C)(O)C(=O)N1CCC(CCc2c(C3CC3)nn(-c3nc4cc(Cl)ccc4[nH]3)c2O)CC1", "attribute_measured": "Kd", "assay_value": "5.9e-09"}
{"smiles_repr": "CC(C)COC(=O)N1CCC(c2nn(-c3nc4ccccc4[nH]3)c(O)c2CCc2ccc(F)cc2)CC1", "attribute_measured": "Kd", "assay_value": "5.88e-06"}
{"smiles_repr": "Oc1c(CC2CCOCC2)c(-c2ccc(F)cc2)nn1-c1nc2ccccc2[nH]1", "attribute_measured": "Kd", "assay_value": "3.5e-06"}

----------
biological target: HIV-1 NefNL4-3 (Human immunodeficiency virus type 1 group M subtype B, UniProt P03406, A33V/T15A/T51N/V11I); assay: Surface plasmon resonance binding to recombinant full-length Nef (NL4-3); conditions: response units at 30 μM relative to Nef immobilized on the SPR chip
Recorded measurements of RU30/RUNef (extent of binding), one per entry

{"compound": "Cn1c(-n2nc(-c3ccc(S(C)(=O)=O)cc3)c(CCc3ccc(F)cc3)c2O)nc2ccccc21 [Compound I-403]", "unit_text": "E- 03", "RU30/RUNef (extent of binding)": 2.88}
{"compound": "O=C1CCCN1CCc1c(-c2ccc(C(F)(F)F)cc2)nn(-c2nc3ccccc3[nH]2)c1O [Compound I-132]", "unit_text": "E- 03", "RU30/RUNef (extent of binding)": 5.62}
{"compound": "Oc1c(CCc2ccc(Br)cc2)c(-c2ccc(C(F)(F)F)cn2)nn1-c1nc2ccccc2[nH]1 [Compound I-147]", "unit_text": "E- 03", "RU30/RUNef (extent of binding)": 2.11}
{"compound": "Oc1c(CCC2CCOCC2)c(-c2ccc(C(F)(F)F)cc2)nn1-c1nc2ccccc2[nH]1 [Compound I-139]", "unit_text": "E- 03", "RU30/RUNef (extent of binding)": 3.41}
{"compound": "CC(=O)N1CCC(Cc2c(-c3ccc(C(F)(F)F)cc3)nn(-c3nc4ccccc4[nH]3)c2O)CC1 [Compound I-720]", "unit_text": "E- 03", "RU30/RUNef (extent of binding)": 2.80}
{"compound": "Oc1c(CC2CCOCC2)c(-c2ccc(F)cc2)nn1-c1nc2cccnc2[nH]1 [Compound I-313]", "unit_text": "E- 03", "RU30/RUNef (extent of binding)": 5.15}
{"compound": "CC(C)(C)OC(=O)N1CCC(c2nn(-c3nc4cccnc4[nH]3)c(O)c2CCc2ccc(F)cc2)CC1 [Compound I-220]", "unit_text": "E- 03", "RU30/RUNef (extent of binding)": 7.24}
{"compound": "CC(C)OC(=O)N1CCC(c2nn(-c3nc4ccccc4[nH]3)c(O)c2CC2CCOCC2)CC1 [Compound I-725]", "unit_text": "E- 03", "RU30/RUNef (extent of binding)": 3.88}
{"compound": "Oc1c(CC2CCOCC2)c(-c2ccccc2)nn1-c1nc2ccccc2[nH]1 [Compound I-183]", "unit_text": "E- 03", "RU30/RUNef (extent of binding)": 1.71}
{"compound": "CS(=O)(=O)c1ccc(-c2nn(-c3nc4ccccc4[nH]3)c(O)c2CCC2CCN(CC(F)(F)F)CC2)cc1 [Compound I-154]", "unit_text": "E- 03", "RU30/RUNef (extent of binding)": 4.50}
{"compound": "CC(=O)N1CCC(c2nn(-c3nc4ccccc4[nH]3)c(O)c2Cc2ccc(F)c(F)c2)CC1 [Compound I-744]", "unit_text": "E- 03", "RU30/RUNef (extent of binding)": 4.92}
{"compound": "O=C(OCc1ccccc1)N1CCC(c2nn(-c3nc4cccc(Cl)c4[nH]3)c(O)c2CCc2ccc(F)cc2)CC1 [Compound I-166]", "unit_text": "E- 03", "RU30/RUNef (extent of binding)": 4.21}
{"compound": "Oc1c(CCc2ccc(F)cc2)c(C2CCCO2)nn1-c1nc2ccccc2[nH]1 (stereo not drawn) [Compound I-136]", "unit_text": "E- 03", "RU30/RUNef (extent of binding)": 5.11}
{"compound": "Oc1c(CCc2ccc(F)cc2)c(CNCc2ccncc2)nn1-c1nc2ccccc2[nH]1 [Compound I-810]", "unit_text": "E- 03", "RU30/RUNef (extent of binding)": 3.75}
{"compound": "Cn1ccc(-c2nn(-c3nc4ccccc4[nH]3)c(O)c2CCc2ccc(F)cc2)cc1=O [Compound I-133]", "unit_text": "E- 03", "RU30/RUNef (extent of binding)": 2.76}
{"compound": "CCOC(=O)N1CCC(c2nn(-c3nc4ccccc4[nH]3)c(O)c2CCC2CCOCC2)CC1 [Compound I-723]", "unit_text": "E- 03", "RU30/RUNef (extent of binding)": 9.19}
{"compound": "CC(C)(O)C(=O)N1CCC(CCc2c(-c3cccc(S(C)(=O)=O)c3)nn(-c3nc4ccccc4[nH]3)c2O)CC1 [Compound I-776]", "unit_text": "E- 03", "RU30/RUNef (extent of binding)": 5.14}
{"compound": "Cc1nn(-c2nc3ccccc3[nH]2)c(O)c1Cc1ccc(Cl)cc1F [Compound I-156]", "unit_text": "E- 03", "RU30/RUNef (extent of binding)": 3.62}
{"compound": "Oc1c(CCc2ccc(F)cc2)c(C2CCOCC2)nn1-c1nc2cccnc2[nH]1 [Compound I-314]", "unit_text": "E- 03", "RU30/RUNef (extent of binding)": 2.97}
{"compound": "Cc1ccn(CCc2c(-c3ccc(C(F)(F)F)cc3)nn(-c3nc4cccnc4[nH]3)c2O)n1 [Compound I-303]", "unit_text": "E- 03", "RU30/RUNef (extent of binding)": 3.06}
{"compound": "Oc1c(CCc2ccc(F)cc2)c(-c2cccnc2)nn1-c1nc2ccccc2[nH]1 [Compound I-121]", "unit_text": "E- 03", "RU30/RUNef (extent of binding)": 7.40}
{"compound": "Cn1c(-n2nc(-c3cccc(S(C)(=O)=O)c3)c(CCc3ccc(F)cc3)c2O)nc2ccccc21 [Compound I-405]", "unit_text": "E- 03", "RU30/RUNef (extent of binding)": 3.25}
{"compound": "Oc1c(CCc2ccc(F)cc2)c(-c2ccc(C(F)(F)F)nc2)nn1-c1nc2ccccc2[nH]1 [Compound I-135]", "unit_text": "E- 03", "RU30/RUNef (extent of binding)": 2.87}
